Target: cynomolgus monkey EL (cynomolgus monkey)
Assay: Biacore; EL captured by anti-C2-tag Ab; bivalent fit
Entries and their measured koff follow.
Lab book: enter the figure in s⁻¹, no units written.

Solved cases below.
binder	metric	endpoint.result
h23H8-S1 (antibody, V domains shown) VH: QVQLVQSGAEVKKPGASVKVSCKASGYTFTDNTIHWVRQAPGQGLEWMGHINPYYGGTNNNEKFKDRVTMTRDTSISTAYMELSRLRSDDTAVYYCARKGIYYSSPFDYWGQGTTVTVSS VL: DIQMTQSPSSLSASVGDRVTITCRASQDINNYLNWYQQKPGKAPKLLIYYTSKLHSGVPSRFSGSGSGTDFTLTISSLQPEDFATYYCQQGNTLPFTFGQGTKLEIK	koff	0.0036
h53A11-S1 (antibody, V domains shown) VH: QVQLVQSGAEVKKPGASVKVSCKASGYTFTDYTMHWVRQAPGQRLEWMGGINPYYGGTTYNEKFKDRVTITRDTSASTAYMELSSLRSEDTAVYYCAKGDYYGGSYNYWGQGTTVTVSS VL: EIVMTQSLATLSVSPGERATLSCRASQDISNSLHWYQQKPGQAPRLLIKYASQSISGIPARFSGSGSGTEFTLTISSLQSEDFAVYYCQQSNSWPYTFGQGTKLEIK	koff	0.0003
h53A11-S3 (antibody, V domains shown) VH: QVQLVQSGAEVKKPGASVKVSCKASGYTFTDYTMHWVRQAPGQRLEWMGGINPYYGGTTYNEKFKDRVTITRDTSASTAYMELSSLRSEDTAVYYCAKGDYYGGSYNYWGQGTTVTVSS VL: EIVMTQSPATLSVSPGERATLSCRASQDISNSLHWYQQKPGQAPRLLIKYASQSISGIPARFSGSGSGTEFTLTISSLQSEDFAVYYCQQSNSWPYTFGQGTKLEIK	koff	0.0007
h53A11-S2 (antibody, V domains shown) VH: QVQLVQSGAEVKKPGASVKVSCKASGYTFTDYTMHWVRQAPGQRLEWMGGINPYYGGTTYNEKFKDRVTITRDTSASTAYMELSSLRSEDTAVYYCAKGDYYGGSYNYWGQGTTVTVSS VL: EIVMTQSLATLSVSPGERATLSCRASQDISNSLHWYQQKPGQAPRLLIYYASQSISGIPARFSGSGSGTEFTLTISSLQSEDFAVYYCQQSNSWPYTFGQGTKLEIK	koff	0.00065

Please list koff recorded for the binder h23H8-S2 (antibody, V domains shown) VH: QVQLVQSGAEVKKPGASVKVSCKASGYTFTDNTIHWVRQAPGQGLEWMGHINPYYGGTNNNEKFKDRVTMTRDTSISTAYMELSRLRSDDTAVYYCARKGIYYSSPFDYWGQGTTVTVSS VL: DIQMTQSPSSLSASVGDRVTITCRASQDINNYLNWYQQKPGKAPKLLISYTSKLHSGVPSRFSGSGSGTDFTLTISSLQREDFATYYCQQGNTLPFTFGQGTKLEIK
0.00099
